- EXPERIMENT_DESCRIPTION: Stability in CD-1 mouse hepatocytes assessed as compound remaining at 1 uM measured up to 6 hrs by LCMS analysis
- Type: ADME, cell-based, Hepatocyte
- STATED_CONDITIONS: CD-1, mouse, read-out: Stability

{"ITEM_SMILES": "CC(C)(C)c1ccc(CN(C(=O)CN(Cc2c(F)c(F)c(F)c(F)c2F)S(=O)(=O)c2ccc(F)cc2)c2ccc(C(=O)NO)cc2)cc1", "VALUE_UNIT": "%", "remaining at 6 h, 1 µM": 20}

---

- SYSTEM_UNDER_TEST: Histone deacetylase 3 (Homo sapiens)
- Sequence (O15379 whole entry): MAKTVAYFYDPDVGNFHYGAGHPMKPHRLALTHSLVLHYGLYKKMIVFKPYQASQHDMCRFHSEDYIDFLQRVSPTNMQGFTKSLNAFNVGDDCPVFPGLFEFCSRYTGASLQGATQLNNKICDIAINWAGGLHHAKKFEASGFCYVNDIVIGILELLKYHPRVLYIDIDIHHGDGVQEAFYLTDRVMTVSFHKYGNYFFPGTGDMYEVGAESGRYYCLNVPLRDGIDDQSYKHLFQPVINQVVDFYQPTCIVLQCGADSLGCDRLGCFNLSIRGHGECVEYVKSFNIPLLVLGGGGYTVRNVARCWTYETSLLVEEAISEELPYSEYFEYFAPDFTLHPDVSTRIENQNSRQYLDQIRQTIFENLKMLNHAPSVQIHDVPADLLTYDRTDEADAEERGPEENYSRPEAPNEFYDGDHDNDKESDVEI
- EXPERIMENT_DESCRIPTION: Inhibition of recombinant full length human HDAC3 expressed in baculovirus infected Sf9 cells using FAM-RHKK-Ac as substrate incubated for 3 hrs by electrophoretic mobility shift assay

{"ITEM_SMILES": "CN(C(=O)CN(C)S(=O)(=O)c1ccc(F)cc1)c1ccc(C(=O)NO)cc1", "SYSTEM_UNDER_TEST": "Histone deacetylase 3 (Homo sapiens)", "IC50": "708 nM"}
{"ITEM_SMILES": "CN(CC(=O)N(Cc1ccc(C(C)(C)C)cc1)c1ccc(C(=O)NO)cc1)S(=O)(=O)c1ccc(F)cc1", "SYSTEM_UNDER_TEST": "Histone deacetylase 3 (Homo sapiens)", "IC50": "492 nM"}
{"ITEM_SMILES": "CN(C(=O)CN(Cc1c(F)c(F)c(F)c(F)c1F)S(=O)(=O)c1ccc(F)cc1)c1ccc(C(=O)NO)cc1", "SYSTEM_UNDER_TEST": "Histone deacetylase 3 (Homo sapiens)", "IC50": "213 nM"}
{"ITEM_SMILES": "CC(C)(C)c1ccc(CN(C(=O)CNS(=O)(=O)c2ccc(F)cc2)c2ccc(C(=O)NO)cc2)cc1", "SYSTEM_UNDER_TEST": "Histone deacetylase 3 (Homo sapiens)", "IC50": "372 nM"}
{"ITEM_SMILES": "CC(C)(C)c1ccc(C(=O)Nc2ccc(C(=O)NO)cc2)cc1", "SYSTEM_UNDER_TEST": "Histone deacetylase 3 (Homo sapiens)", "IC50": "187 nM"}
{"ITEM_SMILES": "CC(=O)N(Cc1ccc(C(C)(C)C)cc1)c1ccc(C(=O)NO)cc1", "SYSTEM_UNDER_TEST": "Histone deacetylase 3 (Homo sapiens)", "IC50": "276 nM"}
{"ITEM_SMILES": "O=C(NO)c1ccc(N(Cc2ccccc2)C(=O)CN(Cc2c(F)c(F)c(F)c(F)c2F)S(=O)(=O)c2ccc(F)cc2)cc1", "SYSTEM_UNDER_TEST": "Histone deacetylase 3 (Homo sapiens)", "IC50": "132 nM"}
{"ITEM_SMILES": "CC(C)(C)c1ccc(CN(C(=O)CN(Cc2c(F)c(F)c(F)c(F)c2F)S(C)(=O)=O)c2ccc(C(=O)NO)cc2)cc1", "SYSTEM_UNDER_TEST": "Histone deacetylase 3 (Homo sapiens)", "IC50": "213 nM"}
{"ITEM_SMILES": "CC(C)(C)c1ccc(CNc2ccc(C(=O)NO)cc2)cc1", "SYSTEM_UNDER_TEST": "Histone deacetylase 3 (Homo sapiens)", "IC50": "503 nM"}
{"ITEM_SMILES": "CC(C)(C)OC(=O)N(Cc1ccc(C(C)(C)C)cc1)c1ccc(C(=O)NO)cc1", "SYSTEM_UNDER_TEST": "Histone deacetylase 3 (Homo sapiens)", "IC50": "374 nM"}
